# tested.on: DA2 receptor (Rattus norvegicus, UniProt P61169)
# Sequence (P61169 whole entry): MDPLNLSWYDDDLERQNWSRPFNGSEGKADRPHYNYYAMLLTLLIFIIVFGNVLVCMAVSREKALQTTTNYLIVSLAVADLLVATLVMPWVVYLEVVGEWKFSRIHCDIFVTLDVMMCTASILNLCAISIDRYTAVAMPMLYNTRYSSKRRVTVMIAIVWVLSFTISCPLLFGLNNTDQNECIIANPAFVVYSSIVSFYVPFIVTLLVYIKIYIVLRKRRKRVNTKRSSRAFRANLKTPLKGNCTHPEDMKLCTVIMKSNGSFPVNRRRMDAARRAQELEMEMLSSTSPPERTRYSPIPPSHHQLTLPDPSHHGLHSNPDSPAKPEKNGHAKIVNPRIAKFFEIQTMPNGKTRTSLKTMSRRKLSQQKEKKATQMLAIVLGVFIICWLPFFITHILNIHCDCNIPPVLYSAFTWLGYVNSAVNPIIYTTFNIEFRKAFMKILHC
experimental.readout: IC50

[
  {
    "chem.smiles": "O=c1[nH]c2cc(NO)ccc2c(=O)n1CCCCN1CC=C(c2ccccc2)CC1",
    "tested.on": "DA2 receptor (Rattus norvegicus, UniProt P61169)",
    "result": "8.1 nM"
  }
]

====

# test.details: Stability (storage at accelerated conditions)
# Assay type: physicochemical
# condition.info: 70° C., 9 days, HPLC; read-out: Residual Amount (%)

[
  {
    "compound": "CCS(=O)(=O)Nc1ccc2[nH]c(=O)n(CCCCN3CC=C(c4ccccc4)CC3)c(=O)c2c1 [Compound C]",
    "measurement.unit": "%",
    "remaining at 216 h": 83.4
  }
]
